Target: PTHR1 (Rattus norvegicus, UniProt P25961)
Sequence (P25961 27-591): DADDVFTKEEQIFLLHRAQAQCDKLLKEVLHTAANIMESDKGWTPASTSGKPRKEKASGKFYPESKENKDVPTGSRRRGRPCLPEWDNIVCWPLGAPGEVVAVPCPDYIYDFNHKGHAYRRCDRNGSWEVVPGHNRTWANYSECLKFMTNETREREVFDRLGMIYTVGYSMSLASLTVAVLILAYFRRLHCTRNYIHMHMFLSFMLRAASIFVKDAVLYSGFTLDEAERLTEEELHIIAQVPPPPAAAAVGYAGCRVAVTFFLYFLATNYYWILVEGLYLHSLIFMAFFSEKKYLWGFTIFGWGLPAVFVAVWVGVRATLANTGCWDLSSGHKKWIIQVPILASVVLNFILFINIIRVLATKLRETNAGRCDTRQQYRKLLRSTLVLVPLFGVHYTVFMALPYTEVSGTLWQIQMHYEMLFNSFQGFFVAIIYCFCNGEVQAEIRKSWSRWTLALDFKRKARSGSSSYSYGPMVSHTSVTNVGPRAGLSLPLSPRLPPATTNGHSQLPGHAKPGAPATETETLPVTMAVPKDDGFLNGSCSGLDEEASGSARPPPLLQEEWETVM
Recorded Fold Shift of EC50, one value per entry.
API note: the answer field is a bare number with no unit suffix.

Past entries and their recorded results:
| chain | Fold Shift of EC50 |
| --- | --- |
| RRLHSTRNYIHMH [Compound 1] | 1.3 |
| TNAGRSDTRQQYRKLLKS [Compound 64] | 7 |
| GGYFRRLHSTRNYIH [Compound 13] | 0.7 |
| RQQYRKLLKSTL [Compound 57] | 15.6 |
| VLATKLRETNAGRSDTRQQ [Compound 46] | 0.9 |

For the record NIVRVLATKLRE [Compound 55] , what value of Fold Shift of EC50 is listed for PTHR1 (Rattus norvegicus, UniProt P25961)?
0.6

Input SRWTLALDFKRKAR [Compound 104]
1.2

Input TNAGRSDTRQQYRKLLF [Compound 83]
7

Input HSLIFMAFFSEKKYL [Compound 33]
1.1

Input RVLATKLRETNAGR [Compound 75]
1.1

Input HSLIFMAFFSEKKYLWGFT [Compound 36]
1.2
